- TARGET_DESC: cynomolgus ILT7 (cynomolgus, UniProt P59901 24-499 (human entry))
- Sequence (P59901 other isoform, or with tags, fused parts or gaps limits assumed): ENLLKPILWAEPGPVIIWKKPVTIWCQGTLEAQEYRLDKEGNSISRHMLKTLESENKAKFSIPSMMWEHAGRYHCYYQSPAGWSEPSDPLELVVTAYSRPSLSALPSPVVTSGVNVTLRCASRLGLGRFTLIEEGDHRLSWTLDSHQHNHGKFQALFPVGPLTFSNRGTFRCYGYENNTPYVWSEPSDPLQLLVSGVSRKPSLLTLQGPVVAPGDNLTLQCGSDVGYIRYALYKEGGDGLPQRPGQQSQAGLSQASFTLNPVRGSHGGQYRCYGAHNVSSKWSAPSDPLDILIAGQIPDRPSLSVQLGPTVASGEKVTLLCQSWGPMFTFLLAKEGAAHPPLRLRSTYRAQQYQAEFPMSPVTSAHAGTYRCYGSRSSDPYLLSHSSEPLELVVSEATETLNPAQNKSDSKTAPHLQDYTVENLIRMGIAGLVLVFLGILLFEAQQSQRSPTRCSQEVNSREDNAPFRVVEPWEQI
- EXPERIMENTAL_DETAILS: cell-based or functional assay
Binary classification by ADCC EC50, with 0.002 nM as an inclusive lower bound for Satisfied; all other cases are Not satisfied.

Below are worked cases with known answers.
ILT70142 (antibody, V domains shown) VH: QVQLVQSGAEVKKPGASVKVSCKASGYTFTSYGISWVRQAPGQGLEWMGWISAYNGNTNYAQKLQGRVTMTRDTSISTAYMELSRLRSDDTAVYYCARNGLWGWDSDAFDIWGQGTTVTVSS VL: QSVLTQPPSVSAAPGQKVTISCSGSSSNIGNNYVSWYQQLPGTAPKLLIYDNNKRPSGIPDRFSGSKSGTSATLGITGLQTGDEADYYCGTWDSSLSAGVFGTGTQLTVL    Satisfied
ILT70137 (antibody, V domains shown) VH: QVQLQQSGAEVKKPGASVKVSCKASGYTFTSYGISWVRQAPGQGLEWMGWISAYNGNTNYAQKLQGRVTMTTDTSTSTAYMELRSLRSDDTAVYYCARNGLWGWDSDAFDIWGRGTLVTVSS VL: QSALTQPASVSGSPGQSITISCTGTSSDVGGYNYVSWYQQHPGKAPKLMIYDVSNRPSGVSNRFSGSKSGNTASLTISGLQAEDEADYYCSSYTSSSTVVFGGGTKVTVL    Satisfied
afucosylated ILT70080.6 (antibody, V domains shown, afucosylated, also called afucosylated ILT0080.6) VH: QVQLVQSGAEVKKPGSSVKVSCKASGDSFRNYAVSWVRQAPGQGLEWMGAMMPSFGTREHSQQFQGRVTLTADESTSTAYMELSSLRSEDTAVYYCAGSRDYNAYHFWTGPPDFWGRGTLVTVSS VL: SYVLTQPPSVSVAPGKTARITCGGDSVGSTSVHWYQQKPGQAPVLVIYYNSDRPSGIPERFSGSNSGNTATLTISRVEAGDEADYYCQVWDTSSDHPEFGGGTKLTVL    Not satisfied
afucosylated IgG1 ILT70137 (antibody, V domains shown, afucosylated (made as in Example 7: lacks the α-1,6 fucose moiety on the N-glycan at Asn-297 of the heavy chain), also called afucosylated ILT70137; Afuc IgG1 ILT70137) VH: QVQLQQSGAEVKKPGASVKVSCKASGYTFTSYGISWVRQAPGQGLEWMGWISAYNGNTNYAQKLQGRVTMTTDTSTSTAYMELRSLRSDDTAVYYCARNGLWGWDSDAFDIWGRGTLVTVSS VL: QSALTQPASVSGSPGQSITISCTGTSSDVGGYNYVSWYQQHPGKAPKLMIYDVSNRPSGVSNRFSGSKSGNTASLTISGLQAEDEADYYCSSYTSSSTVVFGGGTKVTVL    Not satisfied
afucosylated ILT70083 (antibody, V domains shown, afucosylated: lacks the α-1,6 fucose moiety on the N-glycan at Asn-297 of the heavy chain) VH: EVQLLESGGGLVQPGGSLRLSCAASGFTFSSYAMSWVRQAPGKGLEWVSAISGSGGSTYYADSVKGWFTISRDNSKNTLYLQMNSLRAEDTAVYYCARRTYYYDSDGHSDVFDIWGRGTLVTVSS VL: QSVVTQPPSVSAAPGQKVTISCSGSASNIGSNFVSWYQQLPGRAPKLLIYDNDKRDLGIPDRFSASISSTSAALAITGLQTEDEADYYCGTWDTSLTVGVFGGGTKLTVL    Satisfied
ILT70052 (antibody, V domains shown) VH: EVQLVESGGGLVKPGGSLRLSCEASGFTFTDYYMNWIRQAPGKGLEWISYISPGGTTVYYADSVKGRFTISRDNAKNSLYLQMNSLRVEDTAVYYCARDISGYGDWFDPWGKGTLVTVSS VL: QSVVTQPPSASGTPGQRVTISCSGSSSNIGSNTVNWYQLLPATAPRILIYNNNQRPSGVPDRFAGSKSGTSASLAISGLQSEDEADYYCGAWDDSLNSPVFGGGTKLTVL    Satisfied

We next turn to a different binder, shown below.
Test whether the binder afucosylated ILT70080 (antibody, V domains shown, afucosylated: lacks the α-1,6 fucose moiety on the N-glycan at Asn-297 of the heavy chain, also called Afucosylated variant ITL70080) VH: QVQLVQSGAEVKAPGTSVKVSCKASGDSFRNYAVSWVRQAPGQGLEWMGAMMPSFGTREHSQQFNGRVTLSADESTSTAYLELSSLRYDDTAVYYCAGSRDYNAYHFWTGPPDFWGRGTLVTVSS VL: SYELTQPPSVSVAPGKTAKISCGGDSVGSTSVHWYQQKPGQAPVMVMFYNSDRPSGIPERFSGSISGNTATLTISRVEAGDEADYYCQVWDTSSDHPEFGGGTKLTVL records ADCC EC50 of 0.002 nM or higher. Not satisfied
